Listed below: Fe stimulation (R): activity value of LO. scavenging ability values for each entry.
method.summary: LO. scavenging ability, liposome-Fe2+ system (Fe stimulation), NBD-TEEPO fluorescence
Format: biochemical
experimental.conditions: test compound 10 μmol/l, FeSO4 1.0 mmol/l, liposomes, 37° C., 180 minutes; 1−(AUCSample/AUCControl)
endpoint: Fe stimulation (R): activity value of LO. scavenging ability

compound	readout.number
CCCOC(=O)[C@@](C)(N)Cc1ccc(O)c(O)c1	0.454
CCCCOC(=O)[C@@](C)(N)Cc1ccc(O)c(O)c1	0.313
CC(C)(C)OC(=O)[C@@](C)(N)Cc1ccc(O)c(O)c1	0.654
CC(C)OC(=O)[C@@](C)(N)Cc1ccc(O)c(O)c1	0.327
CC1=NN(c2ccccc2)C(=O)C1 [Edaravone, reference compound]	0.288
CCC(C)OC(=O)[C@@](C)(N)Cc1ccc(O)c(O)c1 (some centres unmarked)	0.754
CCOC(=O)[C@@](C)(N)Cc1ccc(O)c(O)c1	0.517
CC(C)COC(=O)[C@@](C)(N)Cc1ccc(O)c(O)c1	0.539

Attribution: patent US20230109489A1
